Quick record of pIC50 values for EGFR (Homo sapiens (Human), UniProt P00533).
In plain terms, pIC50 is the concentration in mol/L turned into minus its base-10 logarithm.

Lookup: Return reported pIC50; argument: Cc1cc(Nc2ncnc3cnc(N4CCC5COCC54)nc23)ccc1Oc1ccc2c(c1)ncn2C (stereo not shown)
Found: 6.06

Lookup: Return reported pIC50; argument: Cc1cc(Nc2ncnc3cnc(N4CC[C@@](C)(O)C4)nc23)ccc1Oc1ccn2ncnc2c1
Found: 5.50

Lookup: Return reported pIC50; argument: Cc1cc(Nc2ncnc3cnc(N[C@H]4CNC[C@H]4F)nc23)ccc1Oc1ccc2c(c1)ncn2C
Found: 5.87
